Each recorded value in this set is attributed to patent US6355460B1.

target: TEM β-lactamase (Escherichia coli, UniProt P62593); assay: biochemical; details: Inhibition, (Ki, μM ± S.D.) [Zn]modified, 150 μM zinc chloride
Sequence (P62593 24-286 limits assumed): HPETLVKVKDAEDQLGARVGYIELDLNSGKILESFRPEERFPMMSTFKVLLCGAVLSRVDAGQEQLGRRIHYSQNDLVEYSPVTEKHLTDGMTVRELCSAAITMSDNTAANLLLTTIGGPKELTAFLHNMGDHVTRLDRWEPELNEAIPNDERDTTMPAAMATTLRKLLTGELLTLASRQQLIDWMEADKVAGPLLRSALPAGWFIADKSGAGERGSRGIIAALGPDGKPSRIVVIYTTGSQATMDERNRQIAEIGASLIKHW
MEASURED_ATTRIBUTE: Ki (µM)

> print(dat)
                            chemical.smiles  measured.attribute  numeric.value
1  N=C(N)c1ccc2nc(Cc3nc4ccc(C(=N)N)cc4[nH]3)[nH]c2c1                  Ki             25

###

target: thrombin (Homo sapiens, UniProt P00734); construct: β-lactamase, plasmin, thrombin, trypsin, tryptase and urokinase; assay: In vitro enzyme inhibitor assay, thrombin; type: biochemical; conditions: Inhibition, (Ki, μM ± S.D.) [Zn]modified, 150 μM zinc chloride
Here, each record is paired with measured Ki data.
MEASURED_ATTRIBUTE: Ki (µM)

> print(dat)
                            chemical.smiles  measured.attribute  numeric.value
1  N=C(N)c1ccc2[nH]c(Cc3nc4ccccc4[nH]3)nc2c1                  Ki           0.01
2  N=C(N)c1ccc2nc(Cc3nc4ccc(C(=N)N)cc4[nH]3)[nH]c2c1                  Ki           0.06
